# Tested on: Amaranthus retroflexus
# Procedure Details: Herbicidal effect pre-emergence
# Format: in vivo
# Condition: 320 g/ha, visual grading after ca. 3 weeks vs untreated controls
Measured herbicidal effect AMARE accompanies every entry in the list below.
Value and unit, in that order.

A selection of reference data follows.
Compound | herbicidal effect AMARE
CCC(=O)Nc1nsc2c(=O)n(CC3CCCCC3)c(CO)cc12 [Example I-048] | 100%
O=C(Nc1nsc2c(=O)n(CC3CCCCC3Cl)cc(Cl)c12)C(F)(F)F (racemic) [Example I-171] | 100%
CCC(=O)Nc1nsc2c(=O)n(CC3CCCCC3Cl)cc(Cl)c12 (racemic) [Example I-172] | 100%
Nc1nsc2c(=O)n(CC3CCCCC3)cc(Cl)c12 [Example I-064] | 100%
Nc1nsc2c1C(O)CN(CC1CCCCC1)C2=O (stereo not drawn) [Example I-144] | 100%

Qu. Sample CC(=O)Nc1nsc2c(=O)n(CC3CCCCC3)cc(Br)c12 [Example I-102] — what was its herbicidal effect AMARE?
Ans. 100%

Qu. Same thing, different compound: CC(C)c1cc2c(N)nsc2c(=O)n1CC1CCCCC1 [Example I-023]
Ans. 100%

Qu. Same thing, different compound: O=C(Nc1nsc2c(=O)n(CC3CCCCC3Cl)cc(Cl)c12)C(F)F (racemic) [Example I-159]
Ans. 100%

Qu. Same thing, different compound: CC(=O)Nc1nsc2c(=O)n(CC3CCCCC3)cc(Cl)c12 [Example I-084]
Ans. 100%

* * *

# System: Setaria viridis
# Procedure Details: Herbicidal effect post-emergence
# Format: in vivo
# Condition: 320 g/ha, visual grading after ca. 3 weeks (Table 8)
Measure Name: herbicidal effect SETVI (%)
Answer with a number only, understood to be in %.

A selection of reference data follows.
Compound | Measurement Unit | herbicidal effect SETVI
CCC(=O)Nc1nsc2c(=O)n(CC3CCCCC3Cl)cc(Cl)c12 (racemic) | % | 80
CCC(=O)OCC1Cc2c(N)nsc2C(=O)N1CC1CCCCC1 (centres unmarked) | % | 100
Nc1nsc2c(=O)n(Cc3cc(F)c(F)cc3F)cc(F)c12 | % | 90
CCC(=O)Nc1nsc2c(=O)n(CC3CCCCC3)cc(Cl)c12 | % | 100

# context switch: different compound, same herbicidal effect SETVI
Qu. Sample `CC(=O)Nc1nsc2c(=O)n(CC3CCCCC3)cc(Cl)c12` — what was its herbicidal effect SETVI?
Ans. 100

* * *

Measured herbicidal effect VIOTR accompanies every entry in the list below.
# Tested on: Viola tricolor
# Procedure Details: Herbicidal effect pre-emergence
# Format: in vivo
# Condition: 320 g/ha, visual grading after ca. 3 weeks vs untreated controls
Answer with a number only, understood to be in %.

A selection of reference data follows.
Compound | Result Value
COCC#Cc1cn(CC2CCCCC2)c(=O)c2snc(N)c12 | 100
CCC(=O)Nc1nsc2c(=O)n(CC3CCCCC3)cc(Br)c12 | 100
Nc1nsc2c1CC(CO)N(CC1CCCCC1)C2=O (stereo not drawn) | 90
O=C(Nc1nsc2c(=O)n(CC3CCCCC3)cc(Cl)c12)C(F)(F)C(F)(F)F | 100
CCC(=O)N(C(=O)CC)c1nsc2c(=O)n(CC3CCCCC3)c(CO)cc12 | 90

Qu. Sample `CCc1cn(CC2CCCCC2)c(=O)c2snc(NC(=O)C(F)(F)C(F)(F)F)c12` — what was its herbicidal effect VIOTR?
Ans. 100

Qu. Same thing, different compound: `CCC(=O)Nc1nsc2c(=O)n(CC3CCCCC3)c(CC)cc12`
Ans. 100

Qu. Same thing, different compound: `CCC(=O)Nc1nsc2c(=O)n(CC3CCCCC3)cc(Cl)c12`
Ans. 100

Qu. Same thing, different compound: `O=C(Nc1nsc2c(=O)n(CC3CCCCC3)c(C3CC3)cc12)C(F)(F)C(F)(F)F`
Ans. 100

Qu. Same thing, different compound: `Nc1nsc2c(=O)n(Cc3cc(F)c(F)cc3F)cc(F)c12`
Ans. 100

Qu. Same thing, different compound: `O=C(Nc1nsc2c(=O)n(CC3CCCCC3)cc(Br)c12)C(F)(F)F`
Ans. 100

Qu. Same thing, different compound: `CC(=O)OCc1cc2c(NC(=O)C(F)(F)C(F)(F)F)nsc2c(=O)n1CC1CCCCC1`
Ans. 80

Qu. Same thing, different compound: `CCC(=O)Nc1nsc2c(=O)n(CC3CCCCC3)c(COC)cc12`
Ans. 100

Qu. Same thing, different compound: `CC(C)Cc1cc2c(NC(=O)C(F)(F)F)nsc2c(=O)n1CC1CCCCC1`
Ans. 100

Qu. Same thing, different compound: `COCc1cc2c(NC(=O)C(F)(F)C(F)(F)F)nsc2c(=O)n1CC1CCCCC1`
Ans. 100

Qu. Same thing, different compound: O=C(Nc1nsc2c(=O)n(CC3CCCCC3Cl)cc(Cl)c12)C(F)(F)C(F)(F)F (racemic)
Ans. 100

Qu. Same thing, different compound: `COCC(=O)Nc1nsc2c(=O)n(CC3CCCCC3)cc(Br)c12`
Ans. 100

Qu. Same thing, different compound: CCC(=O)Nc1nsc2c(=O)n(CC3CCCCC3Cl)cc(Cl)c12 (racemic) [Example I-172]
Ans. 100

Reference source for all entries: patent US10842152B2
